Data origin: paper PMC8326471

Test system: gingival carcinoma (Ca9-22) cells
assay.details: Cytotoxicity assay (MTT), Ca9-22
Format: cell-based, human
experimental.conditions: cytotoxicity relative to 5-FU
Threshold 2: times of potency compared to 5-FU, Ca9-22 strictly smaller gives true, otherwise false.

COc1ccccc1C1=NN(c2ccc(S(N)(=O)=O)cc2)C(c2ccc3c(c2)OCO3)C1 (stereo not shown) :: true
COc1ccc(C2=NN(c3ccc(S(N)(=O)=O)cc3)C(c3ccc4c(c3)OCO4)C2)cc1 (stereo not shown) :: true
COc1cc(C2=NN(c3ccc(S(N)(=O)=O)cc3)C(c3ccc4c(c3)OCO4)C2)ccc1O (stereo not shown) :: true
COc1ccc(OC)c(C2=NN(c3ccc(S(N)(=O)=O)cc3)C(c3ccc4c(c3)OCO4)C2)c1 (stereo not shown) :: false
NS(=O)(=O)c1ccc(N2N=C(c3ccccc3)CC2c2ccc3c(c2)OCO3)cc1 (stereo not shown) :: true
COc1ccc(C2=NN(c3ccc(S(N)(=O)=O)cc3)C(c3ccc4c(c3)OCO4)C2)c(OC)c1 (stereo not shown) :: false
COc1cc(C2=NN(c3ccc(S(N)(=O)=O)cc3)C(c3ccc4c(c3)OCO4)C2)cc(OC)c1OC (stereo not shown) :: false

----------
This section lists pIC50 readings for hCA II (Homo sapiens, UniProt P00918).
pIC50: −log10 of the molar value.
metric: pIC50

COc1cc(C2=NN(c3ccc(S(N)(=O)=O)cc3)C(c3ccc4c(c3)OCO4)C2)ccc1O (stereo not drawn) [4j] :: 4.70
COc1ccc(C2=NN(c3ccc(S(N)(=O)=O)cc3)C(c3ccc4c(c3)OCO4)C2)cc1 (stereo not drawn) [4b] :: 4.79
COc1ccc(C2=NN(c3ccc(S(N)(=O)=O)cc3)C(c3ccc4c(c3)OCO4)C2)c(OC)c1 (stereo not drawn) [4g] :: 4.95
COc1cc(C2=NN(c3ccc(S(N)(=O)=O)cc3)C(c3ccc4c(c3)OCO4)C2)cc(OC)c1OC (stereo not drawn) [4i] :: 4.90
COc1ccccc1C1=NN(c2ccc(S(N)(=O)=O)cc2)C(c2ccc3c(c2)OCO3)C1 (stereo not drawn) [4d] :: 4.97
COc1ccc(OC)c(C2=NN(c3ccc(S(N)(=O)=O)cc3)C(c3ccc4c(c3)OCO4)C2)c1 (stereo not drawn) [4f] :: 4.79

----------
assay.details: Cytotoxicity assay (MTT), HPC normal cells
Format: cell-based
experimental.conditions: human, HPC normal oral cells, non-tumor cells
Let's look at some molecules and their measured log10(CC50 at 48 h).
metric: log10(CC50 at 48 h) (log10 of the value in µM)

COc1ccc(C2=NN(c3ccc(S(N)(=O)=O)cc3)C(c3ccc4c(c3)OCO4)C2)c(OC)c1 (centres unmarked) :: 2.12
O=c1[nH]cc(F)c(=O)[nH]1 [5-FU, 5-Fluorouracil, reference compound] :: 2.98
COc1ccc(C2=NN(c3ccc(S(N)(=O)=O)cc3)C(c3ccc4c(c3)OCO4)C2)cc1OC (centres unmarked) :: 2.60
NS(=O)(=O)c1ccc(N2N=C(c3ccccc3)CC2c2ccc3c(c2)OCO3)cc1 (centres unmarked) :: 1.80
COc1cc(OC)c(C2=NN(c3ccc(S(N)(=O)=O)cc3)C(c3ccc4c(c3)OCO4)C2)cc1OC (centres unmarked) :: 2.60
COc1cc(C2=NN(c3ccc(S(N)(=O)=O)cc3)C(c3ccc4c(c3)OCO4)C2)ccc1O (centres unmarked) :: 1.73
COc1ccc(C2=NN(c3ccc(S(N)(=O)=O)cc3)C(c3ccc4c(c3)OCO4)C2)cc1 (centres unmarked) :: 1.99
COc1ccc(OC)c(C2=NN(c3ccc(S(N)(=O)=O)cc3)C(c3ccc4c(c3)OCO4)C2)c1 (centres unmarked) :: 2.17
